Assay: protein stability index of a GFP-peptide fusion (yeast GPS) (PSI 1-4); higher = more stable; sorted into four equal gates, so the index is relative within each strain
Conditions: ubr1∆
protein stability index by entry:
outcome_measure: protein stability index

>>> result("AEKLGSKKAEKTGTKPA [RPL4A]")
3.06
>>> result("NSILSVRDPWSIDFRTY [SRB2]")
2.98
>>> result("VLTAAGVERLIFYPDEY [PRE3]")
2.95
>>> result("NSGIIPGNRNADNVDKI [FAS2]")
3.04
>>> result("LNVKCTRNPDAPKGSTD [RPC40]")
3.06
>>> result("AIGYEPLSLTHRDKNKM [DIS3]")
2.93

From: the supplement of paper PMC9732359
